experiment: Inhibition of human chymotrypsin using MeO-SucArg-Pro-Tyr-pNA as substrate after 10 to 120 mins at 37 degC by spectrophotometric method
quantity measured: pKi
pKi is a log-scale quantity: -log10 of the concentration expressed in molar.

q: Any idea what pKi was measured for COC(=O)Nc1ccc2c(c1)NC(=O)CC/C=C/C[C@H](NC(=O)/C=C/c1cc(Cl)ccc1-n1cnnn1)c1nc-2c[nH]1 ?
a: 5.82

q: If you can, please state the reported pKi value of COC(=O)Nc1ccc2c(c1)NC(=O)CCCC[C@H](NC(=O)/C=C/c1cc(Cl)ccc1-n1cnnn1)c1nc-2c[nH]1 .
a: 5.40
